Cited source for all entries: patent US20260226068A1

Target: IL-17A/F (Homo sapiens, UniProt Q16552+Q96PD4)
Sequence (Q16552 24-155): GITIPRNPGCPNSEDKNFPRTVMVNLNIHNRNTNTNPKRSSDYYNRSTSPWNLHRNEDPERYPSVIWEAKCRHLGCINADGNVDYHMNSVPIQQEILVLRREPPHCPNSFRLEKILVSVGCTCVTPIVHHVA
Sequence (Q96PD4 31-163): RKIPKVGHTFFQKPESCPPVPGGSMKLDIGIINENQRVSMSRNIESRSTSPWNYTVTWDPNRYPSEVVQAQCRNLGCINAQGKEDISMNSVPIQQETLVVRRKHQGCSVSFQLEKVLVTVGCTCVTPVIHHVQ
Test: IL-17A/F HEK-Blue cell assay (SEAP reporter)
Conditions: HEK-Blue IL-17A reporter cells, IL17A/F 5 ng/mL, 20 hours, SEAP read at A630; read-out: HEK-Blue IL17AF (IC50 for IL-17A/F inhibition)
Overview of reported IC50 across a group of compounds:
quantity kind: IC50

INSERT INTO measurements (compound, reported_value) VALUES
  ('CCn1nccc1C(=O)N[C@@H](COC(C)(C)C(F)(F)F)c1cn2nc(C[C@H]3C[C@@H](C(F)(F)F)CNC3=O)c(C3CCOCC3)nc2n1 (single isomer, unassigned)', '> 1000 nM'),
  ('Cn1nccc1C(=O)N[C@H](c1cn2nc(C[C@H]3C[C@@H](C(F)(F)F)CNC3=O)c([C@H]3CCCOC3)nc2n1)[C@H]1CCCC(F)(F)C1 (single isomer, unassigned)', '100 to 1000 nM'),
  ('Cc1nonc1C(=O)N[C@H](c1cn2nc(C[C@H]3C[C@@H](C(F)(F)F)CNC3=O)c(N3CCN(C)CC3)nc2n1)C1CCC(F)(F)CC1', '> 1000 nM'),
  ('CC(C)n1nccc1C(=O)N[C@H](c1cn2nc(C[C@H]3C[C@@H](C(F)(F)F)CNC3=O)c(C3CCOCC3)nc2n1)[C@@H]1CCCC(F)(F)C1', '100 to 1000 nM'),
  ('O=C(N[C@H](c1cn2nc(C[C@H]3C[C@@H](C(F)(F)F)CNC3=O)c(C3CCOCC3)nc2n1)C1CCC(F)(F)CC1)c1conc1C1CC1(F)F (single isomer, unassigned) [Compound 145]', '100 to 1000 nM'),
  ('O=C(N[C@H](c1cn2nc(CC3C[C@@H](C(F)(F)F)CNC3=O)cnc2n1)C1CCC(F)(F)CC1)c1nonc1C1CC1 (some centres unmarked)', '> 1000 nM'),
  ('CCn1nccc1C(=O)N[C@H](c1cn2nc(C[C@H]3C[C@@H](C(F)(F)F)CNC3=O)c(C3CN(C)C3)nc2n1)C1CCC(F)(F)CC1', '> 1000 nM'),
  ('O=C(N[C@H](c1cn2nc(C[C@H]3C[C@@H](C(F)(F)F)CNC3=O)c(C3CCOCC3)nc2n1)C1CCC(F)(F)CC1)c1ccnn1CCN1CCCC1C(F)(F)F (some centres unmarked)', '100 to 1000 nM'),
  ('Cc1nonc1C(=O)N[C@H](c1cn2nc(C[C@@H]3C[C@H](C)CNC3=O)c(C3CCOCC3)nc2n1)C1CCC(F)(F)CC1', '> 1000 nM'),
  ('O=C(N[C@H](c1cn2nc(C[C@H]3C[C@@H](C(F)(F)F)CNC3=O)c(C3CCCOC3)nc2n1)[C@@H]1CCCC(F)(F)C1)c1nonc1C1CC1 (single isomer, unassigned) [Compound 210]', '100 to 1000 nM'),
  ('CCn1nccc1C(=O)N[C@H](c1cn2nc(C[C@H]3C[C@@H](C(F)(F)F)CNC3=O)c(C(C)C)nc2n1)[C@H]1CC[C@H](C)CC1', '100 to 1000 nM');
